- System: Candida albicans
- test-name: Antifungal activity against Candida albicans isolate 7 assessed as reduction in fungal growth incubated for 48 hrs by broth microdilution method
- Type: functional
For each of the molecules below, state its MIC.
One number for each entry, in µg/mL.

| molecule | metric-name | unit-spec | data-value |
| --- | --- | --- | --- |
| [Cl-].[N-]=[N+]=NCCCCCCCCCCCCOCCCc1ccc[n+](Cc2ccccc2)c1 | MIC | µg/mL | 1.95 |
| CCCC[n+]1cccc(CCCOCCCCCCCCCCCCN=[N+]=[N-])c1.[I-] | MIC | µg/mL | 7.8 |
| COC(=O)CCNCCCCCCCCCCCCOCCCc1cccnc1 | MIC | µg/mL | 250 |

As a next step, examine the molecule that follows.
Q) Record request: MIC value, item CC(=O)N1CCN(c2ccc(OCC3COC(Cn4ccnc4)(c4ccc(Cl)cc4Cl)O3)cc2)CC1 (stereo not given) [KETOCONAZOLE]
A) 1.95

###

- System: Candida albicans
- test-name: Antifungal activity against Candida albicans isolate 3 assessed as reduction in fungal growth incubated for 48 hrs by broth microdilution method
- Assay type: functional
For each of the compounds below, state its MIC.
Answers are plain numbers, in µg/mL.

Some solved cases for reference:
| smiles-string | test-system | unit-spec | data-value |
| --- | --- | --- | --- |
| CCCC[n+]1cccc(CCCOCCCCCCCCCCCCN=[N+]=[N-])c1.[I-] | Candida albicans | µg/mL | 3.9 |
| C[C@@H]1[C@H](O)[C@@H](C)/C=C/C=C/C=C/C=C/C=C/C=C/C=C/[C@H](O[C@@H]2O[C@H](C)[C@@H](O)[C@H](N)[C@@H]2O)C[C@@H]2O[C@](O)(C[C@@H](O)C[C@@H](O)[C@H](O)CC[C@@H](O)C[C@@H](O)CC(=O)O[C@H]1C)C[C@H](O)[C@H]2C(=O)O | Candida albicans | µg/mL | 39 |

As a next step, examine the compound that follows.
Q) Record request: MIC value, item [Cl-].[N-]=[N+]=NCCCCCCCCCCCCOCCCc1ccc[n+](Cc2ccccc2)c1
A) 7.8

Data provenance is ChEMBL document CHEMBL4732126.
